# assay.info: NCI Yeast Anticancer Drug Screen. Data for the mlh1 rad18 strain (AID 175)
# reported.conditions: S. cerevisiae mlh1 rad18 strain growth inhibition; at 50.0 µM; active compounds read high
About 79,000 compounds went through this panel and 15% of them were active in at least one assay; those are over-represented in the sample as a whole. Where a SMILES comes first, the peptide text is derived from it. [ ]: non-standard residue; d: D form. The star is where a group is joined. ξ: configuration not given here. ξL = CC(C)CC(N)C(=O)O; ClAc = O=C(CCl)*
reported.endpoint: growth inhibition (%)
Numbers only, in %.

CCCCCCCCCCCCCCCc1cc(=S)n(C)c2ccc(C)cc12 : 16.1
CC(C)CC(NC(=O)CCl)C(=O)NCC(=O)O (stereo not drawn) (ClAc-[ξL]-Gly-OH) : -3.75

Tell us which growth inhibition value is on record for CCCCCCCCCCCCOc1ccccc1C=O
-17.4
